- EXPERIMENT: toxicokinetics, 28-day monkey study
- Format: in vivo, cynomolgus monkey
- CONDITION INFO: female, cynomolgus, cynomolgus monkey, plasma, po, 15 mg/kg/day, monkey, Study Day 21, female, 15 mg/kg/day (so in the source); read-out: AUCLST
MEASURED ATTRIBUTE: AUC (ng·h/mL)
Kindly answer with a numeric value in ng·h/mL, unit omitted.

Input: State, in one line, measured AUC of CCOCc1cnc(Cl)nc1Oc1ccc2c(ccc3sc4c(c32)NC[C@@H](C)NC4=O)n1
Output: 2460

----------
- EXPERIMENT: single oral dose pharmacokinetics in Sprague Dawley rats
- Assay type: in vivo
- CONDITION INFO: both sexes, Sprague Dawley, rat, plasma, po; rats, doses in the range 15 to 375 mg/kg
- Experimental: In vitro and in vivo studies were conducted to characterize the absorption, PK, distribution, and metabolism of Compound 1. […] Additionally, plasma samples from single dose PK studies in mice and monkeys were evaluated for circulating metabolites.
MEASURED ATTRIBUTE: bioavailability

Input: State, in one line, measured bioavailability of CCOCc1cnc(Cl)nc1Oc1ccc2c(ccc3sc4c(c32)NC[C@@H](C)NC4=O)n1 [Compound 1]
Output: 8 to 28%

Measured values drawn from patent US20220251105A1 for this set.
